assay: Nuclear factor erythroid 2-related factor 2/antioxidant responsive element (Nrf2/ARE) small molecule agonists: qHTS cell viability counter screen in human keratinocytes (AID 1919968); settings: KeratinoSens HaCaT ARE cells viability, CellTiter-Fluor, 24 h; series mostly up to 92.4 µM; also: nearly all actives have a fitted effect of over 55% in size; also: potency is read from the fitted curve at half-maximal effect
Results filed as inconclusive are left out. Activity calls are given as the source filed them. Calls follow the shape of the dose curve; as a rule, active = well fitted cell-killing curve with a large enough effect in the repeat runs; inconclusive = weak or mixed curves, or effect the other way; inactive = flat fitted curve, though single readings scatter.
Endpoint name: Potency

Solved cases below.
COC(=O)C1=C(C)NC(C)=C(C(=O)OCC(C)=O)C1c1ccccc1[N+](=O)[O-] (centres undefined)
inactive
c1ccc(Sc2ccccc2)cc1
inactive
C=C(C)C(=O)OCCOCCOC(=O)C(=C)C
inactive
OC(CN1CCC(Cc2ccc(F)cc2)CC1)c1ccc(Cl)cc1 (centres undefined)
29.8 µM (active)
CC1(C)[C@@H](O)CC[C@]2(C)[C@H]3C(=O)C=C4[C@@H]5C[C@@](C)(C(=O)O)CC[C@]5(C)CC[C@@]4(C)[C@]3(C)CC[C@@H]12
67.8 µM (active)
CO
inactive
COC(C)CCO (centres undefined)
inactive
Cc1ccccc1N=C(N)N=C(N)N
inactive

Here is another compound to look at.
Query :: Let me know recorded Potency for `O=C(NOCC1CC1)c1ccc(F)c(F)c1Nc1ccc(I)cc1Cl` , thanks.
Result :: 29.8 µM (active)

###

molecular target: Beta-2 adrenergic receptor (Homo sapiens) (UniProt P07550); assay: Adrenergic beta2 receptor (ADRB2) small molecule antagonists, cell-based qHTS assay (AID 1963592); conditions: CHO-ADRB2 cells, isoproterenol-stimulated cAMP HTRF ratio, 0.5 h; series mostly up to 92.4 µM; also: nearly all actives have a fitted effect of over 50% in size
Sequence (P07550 whole entry, looked up): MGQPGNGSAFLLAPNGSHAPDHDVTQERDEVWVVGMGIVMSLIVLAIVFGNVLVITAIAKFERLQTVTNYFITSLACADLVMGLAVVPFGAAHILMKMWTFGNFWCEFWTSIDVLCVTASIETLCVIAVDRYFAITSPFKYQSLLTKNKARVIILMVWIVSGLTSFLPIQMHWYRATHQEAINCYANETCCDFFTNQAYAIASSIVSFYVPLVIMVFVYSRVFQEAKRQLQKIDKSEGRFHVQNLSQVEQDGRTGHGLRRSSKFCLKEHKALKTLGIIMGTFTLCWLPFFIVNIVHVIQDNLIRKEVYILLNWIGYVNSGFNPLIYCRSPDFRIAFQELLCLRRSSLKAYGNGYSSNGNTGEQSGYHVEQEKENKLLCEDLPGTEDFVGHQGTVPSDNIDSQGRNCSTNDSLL
Records with an inconclusive call do not appear. Activity calls are given as the source filed them. Calls follow the shape of the full dose curve.
Your reply should match one of these outcome classes. active, inactive

Consider the worked cases shown below.
O=C(c1ccccc1)c1ccc(O)cc1
inactive
NC1=NCC2c3ccccc3Cc3ccccc3N12 (stereo not drawn)
inactive
CNc1ncnc2nc[nH]c12
inactive
NC(=O)c1cc[n+](CC2=C(C(=O)[O-])N3C(=O)[C@@H](NC(=O)Cc4cccs4)[C@H]3SC2)cc1
inactive

Query :: // return assay outcome for OCCC1CCCCN1 (stereo not drawn)
Result :: inactive

Query :: // return assay outcome for `C=C(C)C(=O)OCc1ccccc1`
Result :: inactive

Query :: // return assay outcome for CC(=O)OC(C)C[N+](C)(C)C (stereo not drawn)
Result :: inactive

Query :: // return assay outcome for `c1ccc2c(c1)ccc1c3ccccc3ccc21`
Result :: inactive

Query :: // return assay outcome for `CCCCCCCCCOC(=O)CCCCC(=O)OCCCCCCC`
Result :: active

###

target: Muscarinic acetylcholine receptor M1 (Homo sapiens); experiment: Cholinergic receptor muscarinic 1 (CHRM1) small molecule antagonists, cell-based qHTS assay (AID 1963588); details: CHRM1-CHO antagonist mode, calcium flux fluorescence; series mostly up to 61.5 µM; also: nearly all actives have a fitted effect of over 40% in size
Records with an inconclusive call do not appear. Active and inactive are the calls of the source. Calls follow the shape of the full dose curve.
Your reply should match one of these outcome classes. TRUE = active, FALSE = inactive

Query :: // return assay outcome for `NNc1nc(-c2ccccc2)cs1`
Result :: FALSE

Query :: // return assay outcome for CCCCCCCCC(CCCCCC)C(=O)O (stereo unspecified)
Result :: FALSE

Query :: // return assay outcome for C=CC(=O)OCC1CC2CC1C1CCC(COC(=O)C=C)C21 (stereo unspecified)
Result :: FALSE

Query :: // return assay outcome for `Cc1cc(Nc2ccc(O)cc2)ccc1N`
Result :: FALSE
